The entries below come with measured inhibition of growth at 10 µM values attached.
Test system: NCI-H23
Assay: Cytotoxicity against human NCI-H23 cells assessed as growth inhibition at 10 uM after 48 hrs by sulphorhodamine B assay
Assay type: functional
Details: NCI-H23, 48 h, read-out: GI

{"compound": "CC1CCCc2c1nc1ncnc(N)c1c2-c1ccc(Cl)cc1 (stereo not drawn)", "inhibition of growth at 10 µM": "< 10%"}
{"compound": "COc1ccc(-c2c3c(nc4ncnc(N)c24)C(C)CCC3)cc1 (stereo not drawn)", "inhibition of growth at 10 µM": "< 10%"}
{"compound": "COc1ccc(-c2c3c(nc4ncn5ncnc5c24)C(C)CCC3)cc1 (stereo not drawn)", "inhibition of growth at 10 µM": "< 10%"}

###

System: HOP-92
Test: Cytotoxicity against human HOP92 cells assessed as growth inhibition at 10 uM after 48 hrs by sulphorhodamine B assay
Format: functional
Details: HOP-92, 48 h, read-out: GI

{"compound": "CC1CCCc2c1nc1[nH]c(=S)nc(N)c1c2-c1ccc(Cl)cc1 (stereo not drawn)", "inhibition of growth at 10 µM": "< 10%"}
{"compound": "COc1ccc(-c2c3c(nc4nc[nH]c(=O)c24)C(C)CCC3)cc1 (stereo not drawn)", "inhibition of growth at 10 µM": "< 10%"}
{"compound": "COc1ccc(-c2c3c(nc4ncn5ncnc5c24)C(C)CCC3)cc1 (stereo not drawn)", "inhibition of growth at 10 µM": "< 10%"}

###

The entries below come with measured inhibition of growth at 10 µM values attached.
Tested on: RPMI-8226
Assay: Cytotoxicity against human RPMI8226 cells assessed as growth inhibition at 10 uM after 48 hrs by sulphorhodamine B assay
Format: functional
Conditions: RPMI-8226, 48 h, read-out: GI
quantityKind: inhibition of growth at 10 µM

{"molecule": "CCSc1nc(N)c2c(-c3ccc(OC)cc3)c3c(nc2n1)C(C)CCC3 (stereo unspecified)", "experimentalValue": "25.5%"}
{"molecule": "CC1CCCc2c1nc1[nH]c(=O)nc(N)c1c2-c1ccc(Cl)cc1 (stereo unspecified)", "experimentalValue": "23%"}
{"molecule": "COc1ccc(-c2c3c(nc4nc[nH]c(=O)c24)C(C)CCC3)cc1 (stereo unspecified)", "experimentalValue": "< 10%"}
{"molecule": "CC1CCCc2c1nc1[nH]c(=S)nc(N)c1c2-c1ccc(Cl)cc1 (stereo unspecified)", "experimentalValue": "37%"}
{"molecule": "COc1ccc(-c2c3c(nc4ncnc(N)c24)C(C)CCC3)cc1 (stereo unspecified)", "experimentalValue": "25%"}
{"molecule": "COc1ccc(-c2c3c(nc4ncn(N)c(=N)c24)C(C)CCC3)cc1 (stereo unspecified)", "experimentalValue": "< 10%"}
{"molecule": "CC1CCCc2c1nc(NC(=S)NC(=O)c1ccccc1)c(C#N)c2-c1ccc(Cl)cc1 (stereo unspecified)", "experimentalValue": "55%"}
{"molecule": "COc1ccc(-c2c(C#N)c(N)nc3c2CCCC3C)cc1 (stereo unspecified)", "experimentalValue": "34.1%"}
{"molecule": "CC1CCCc2c1nc(N)c(C#N)c2-c1ccc(Cl)cc1 (stereo unspecified)", "experimentalValue": "18.2%"}
{"molecule": "CC1CCCc2c1nc1[nH]c(=S)n(-c3ccccc3)c(=N)c1c2-c1ccc(Cl)cc1 (stereo unspecified)", "experimentalValue": "66%"}
{"molecule": "CC1CCCc2c1nc1ncnc(N)c1c2-c1ccc(Cl)cc1 (stereo unspecified)", "experimentalValue": "21.3%"}
